Data provenance: patent US8173635B2

# test target: PKC alpha kinase (Homo sapiens)
# assay summary: PKC alpha kinase inhibition, coupled-enzyme NADH absorbance assay (Ki)
# Type: biochemical
# particulars: 130 μM ATP, 4.5 nM PKC alpha, 30° C.; read-out: Ki PKC alpha
# Description: An assay buffer solution was prepared which consisted of 100 mM HEPES (pH 7.5), 10 mM MgCl2, 25 mM NaCl, 0.1 mM EDTA, 100 μM CaCl2 and 0.01% Brij. […] To 16 μL of this enzyme buffer, in a 384 well plate, was added 1 μL of VRT stock solution in DMSO. […] Initial rate data was determined from the rate of change of absorbance at 340 nm (corresponding to stoichiometric consumption of NADH) using a Molecular Devices Spectramax plate reader (Sunnyvale, Calif.) over 15 mins at 30° C. […]
Field: Ki. Provide a value for each of the compounds that follow.

Task item: Requested field: Ki. Item: CCC(C)(CN)c1cccc(-c2ccnc3[nH]nc(Cl)c23)c1 (stereo not drawn)
Reply: < 50 nM

Task item: Record: COCCC(C)(CN)c1cccc(-c2ccnc3[nH]nc(C(F)(F)F)c23)c1 (stereo not drawn)
Reply: < 500 nM

Task item: Moving on to CCC(C)(CO)c1cccc(-c2ccnc3[nH]nc(C(F)(F)F)c23)c1 (stereo not drawn)
Reply: < 500 nM

Task item: And then CCC(C)(CN)c1cccc(-c2ccnc3[nH]nc(C4CC4)c23)c1 (stereo not drawn) , what is it?
Reply: < 50 nM

Task item: Another compound: `NCC1(c2cccc(-c3ccnc4[nH]nc(Cl)c34)c2)CCOCC1`
Reply: < 500 nM

Task item: Would you mind doing CC(C#N)(CC1CC1)c1cccc(-c2ccnc3[nH]ncc23)c1 (stereo not drawn) as well?
Reply: < 2800 nM

Task item: Follow-up item: N#CC(c1cccc(-c2ccnc3[nH]ncc23)c1)N1CCNCC1 (stereo not drawn)
Reply: > 1200 nM

Task item: For CCC(C)(C#N)c1cc(-c2ccnc3[nH]ncc23)cc(C(F)F)c1 (stereo not drawn) then?
Reply: < 500 nM

Task item: Try COCCC(C)(C#N)c1cccc(-c2ccnc3[nH]ncc23)c1 (stereo not drawn) next.
Reply: > 2800 nM

====

Could you please report measured Ki for the items listed next?
# test target: PKC theta kinase (Homo sapiens, UniProt Q04759)
# Sequence (Q04759 whole entry): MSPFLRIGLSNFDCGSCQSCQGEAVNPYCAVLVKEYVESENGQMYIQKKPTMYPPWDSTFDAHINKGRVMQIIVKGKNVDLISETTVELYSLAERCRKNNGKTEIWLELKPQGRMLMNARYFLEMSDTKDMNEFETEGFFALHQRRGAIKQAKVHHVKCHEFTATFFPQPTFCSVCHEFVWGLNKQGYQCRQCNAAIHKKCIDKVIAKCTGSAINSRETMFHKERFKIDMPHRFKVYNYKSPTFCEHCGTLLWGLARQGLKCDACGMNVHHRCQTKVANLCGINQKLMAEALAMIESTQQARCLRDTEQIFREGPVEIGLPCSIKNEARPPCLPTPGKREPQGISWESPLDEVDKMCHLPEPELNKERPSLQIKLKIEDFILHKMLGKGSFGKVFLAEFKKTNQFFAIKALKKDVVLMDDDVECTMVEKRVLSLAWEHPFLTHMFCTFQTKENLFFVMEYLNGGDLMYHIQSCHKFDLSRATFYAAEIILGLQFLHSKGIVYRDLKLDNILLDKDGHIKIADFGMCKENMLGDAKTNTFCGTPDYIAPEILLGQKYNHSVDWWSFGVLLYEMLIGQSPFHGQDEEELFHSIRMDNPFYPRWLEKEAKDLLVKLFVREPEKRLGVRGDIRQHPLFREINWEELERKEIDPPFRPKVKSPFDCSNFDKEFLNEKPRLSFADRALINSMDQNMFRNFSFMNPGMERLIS
# assay summary: PKC theta kinase inhibition, coupled-enzyme NADH absorbance assay (Ki)
# Format: biochemical
# particulars: 240 μM ATP, 18 nM PKC theta, 30° C.; read-out: Ki PKC theta

Task item: Could you tell me which Ki is on file for CCC(F)(CN)c1cc(C)cc(-c2ccnc3[nH]nc(C(F)(F)F)c23)c1 (stereo not shown) ?
Reply: < 50 nM

Task item: Moving on to the next molecule: C/C=C\C1(c2cccc(-c3ccnc4[nH]ncc34)c2)CCNC1 (stereo not shown)
Reply: < 50 nM

Task item: Now consider CCc1cc(-c2ccnc3[nH]nc(Cl)c23)cc(C(C)(CC)CN)c1 (stereo not shown) .
Reply: < 50 nM

Task item: Also CCC(C)(C#N)c1cc(CO)cc(-c2ccnc3[nH]ncc23)c1 (stereo not shown) , if possible.
Reply: < 500 nM

Task item: Now the molecule CC1(c2cccc(-c3ccnc4[nH]ncc34)c2)CCNC1 (stereo not shown)
Reply: < 50 nM

Task item: Next molecule: CCC(C)(CN)c1cc(CCC(F)F)cc(-c2ccnc3[nH]ncc23)c1 (stereo not shown)
Reply: < 500 nM

Task item: How about `NCC1(c2cc(-c3ccnc4[nH]ncc34)cc(C(F)(F)F)c2)CCC1` ?
Reply: < 500 nM

Task item: // query: CCC(C)(C#N)c1cc(-c2ccnc3[nH]ncc23)cc(C(F)(F)CCC2CCCC2)c1 (stereo not shown)
Reply: > 700 nM

Task item: How about this molecule: `O=C1CCc2cc(-c3ccnc4[nH]ncc34)ccc21`
Reply: < 2800 nM

Task item: Similarly, CC(C#N)(c1cccc(-c2ccnc3[nH]ncc23)c1)C1CCCC1 (stereo not shown) ?
Reply: < 2800 nM

Task item: Please give the result for `CC(=O)N1CCN(c2cc(-c3ccnc4[nH]ncc34)cc(C(C)(C)C#N)c2)CC1` too.
Reply: > 2800 nM

Task item: Same thing, different molecule: CCC(C)(C#N)c1cc(Cl)cc(-c2ccnc3[nH]ncc23)c1 (stereo not shown)
Reply: < 500 nM

Task item: Again, but for `N#CCC1(c2cccc(-c3ccnc4[nH]ncc34)c2)CNC1`
Reply: < 50 nM

Task item: Same question for COCCCC(C)(CN)c1cccc(-c2ccnc3[nH]ncc23)c1 (stereo not shown) please.
Reply: < 50 nM

Task item: Next: `Cc1cnc2[nH]ncc2c1-c1cccc(C(C)(C)C#N)c1`
Reply: > 700 nM

Task item: Field entry: `NCc1cccc(-c2ccnc3[nH]nc(C(F)(F)F)c23)c1`
Reply: < 500 nM

Task item: Now consider COCC(C)(CN)c1cccc(-c2ccnc3[nH]ncc23)c1 (stereo not shown) .
Reply: < 50 nM

Task item: Okay, and `NCC1(c2cccc(-c3ccnc4[nH]ncc34)c2)CCOCC1` ?
Reply: < 50 nM

Task item: Another molecule to check: `Cc1cc(-c2ccnc3[nH]nc(Cl)c23)cc(C2(CN)CCOCC2)c1`
Reply: < 50 nM

Task item: Please answer likewise for CCC(C)(CN)c1cc(CCCOC)cc(-c2ccnc3[nH]ncc23)c1 (stereo not shown)
Reply: < 50 nM

Task item: What would you report for `N#CC1(c2cc(-c3ccnc4[nH]ncc34)cc(C(F)(F)CCN)c2)CC1` ?
Reply: < 50 nM

Task item: Same for `N#C[C@]1(c2cccc(-c3ccnc4[nH]ncc34)c2)C[C@@H](N)C1`
Reply: < 50 nM

Task item: // repeat for CCC(C)(C#N)c1cc(-c2ccnc3[nH]ncc23)cc(C(F)F)c1 (stereo not shown) and report
Reply: < 50 nM

Task item: Moving on to CCC(C)(C#N)c1cc(C=O)cc(-c2ccnc3[nH]ncc23)c1 (stereo not shown)
Reply: < 500 nM

Task item: Also check CCC(C)(CN)c1cc(-c2ccnc3[nH]ncc23)cc(C(C)(F)F)c1 (stereo not shown)
Reply: < 50 nM

Task item: Again, but for CC(O)c1cccc(-c2ccnc3[nH]ncc23)c1 (stereo not shown)
Reply: > 700 nM

Task item: Another: CCC1(c2cc(C)cc(-c3ccnc4[nH]ncc34)c2)CNC(=O)O1 (stereo not shown)
Reply: < 50 nM

Task item: Okay, and CCC(C)(CN)c1cc(CCO)cc(-c2ccnc3[nH]ncc23)c1 (stereo not shown) ?
Reply: < 50 nM

Task item: Same question, C=CCC(C)(C#N)c1cccc(-c2ccnc3[nH]ncc23)c1 (stereo not shown) this time
Reply: < 500 nM

Task item: Try C=CCC1(c2cc(C)cc(-c3ccnc4[nH]ncc34)c2)CNC(=O)O1 (stereo not shown) next.
Reply: < 500 nM

Task item: Same thing, different molecule: `NCC1(c2cccc(-c3ccnc4[nH]ncc34)c2)COC1`
Reply: < 500 nM

Task item: And what about the molecule CCC(C)(C#N)c1cc(-c2ccnc3[nH]ncc23)cc(C(C)(F)F)c1 (stereo not shown) ?
Reply: < 50 nM

Task item: Another molecule to check: CCC(C)(CNC)c1cccc(-c2ccnc3[nH]ncc23)c1 (stereo not shown)
Reply: < 50 nM

Task item: Next entry: CCC(C)(CN)c1cccc(-c2ccnc3[nH]nc(C4CC4)c23)c1 (stereo not shown)
Reply: < 50 nM

Task item: Another molecule to look at: CC(C)CC(C)(C#N)c1cccc(-c2ccnc3[nH]ncc23)c1 (stereo not shown)
Reply: < 2800 nM

Task item: What about `N#CC1(c2cc(CCCN)cc(-c3ccnc4[nH]ncc34)c2)CC1` ?
Reply: < 50 nM

Task item: Same thing, different molecule: `O=C1CCc2ccc(-c3ccnc4[nH]ncc34)cc21`
Reply: < 500 nM
